Recorded TGI values for a group of molecules are listed next.
System: LOX IMVI melanoma
Assay: NCI tumour cell line growth inhibition, 48 h

Examples from the recorded data:
Molecule | Target under test | Measured property | Meas value
C=C1C(O)C2C(=C(CCc3ccccc3)C13CC3)C(=O)C(C)(CO)C2O (stereo not drawn) | LOX IMVI melanoma | TGI | > 100 µM
CN(C)CCCNC(=O)c1cc(NC(=O)c2cc(NC(=O)CCc3c[nH]c4ccccc34)cn2C)cn1C | LOX IMVI melanoma | TGI | > 100 µM

API: the following record is the query input.
Exam item: Please list TGI recorded for the molecule C[C@H](CCC(=O)NCCS(=O)(=O)O)[C@H]1CC[C@H]2[C@@H]3CC[C@@H]4C[C@H](O)CC[C@]4(C)[C@H]3CC[C@]12C
Marked response: > 100 µM

----------
Tested on: HCT-15 colon
Assay: NCI tumour cell line growth inhibition, 48 h
Measured property: TGI

Examples from the recorded data:
Molecule | Measured property | Meas value
CCCNNC(=O)/C=C/c1ccc(CNCCc2c(C)[nH]c3ccccc23)cc1 | TGI | 3.16 µM
C[C@]12CC[C@H]3[C@@H](CC=C4C[C@@H](N5CCCC5)CC[C@@]43C)[C@@H]1C[C@H](N1CCOCC1)[C@@H]2O | TGI | > 100 µM
COC(=O)C1=C(C(=O)OC)C(C(=O)c2ccc(Br)cc2)N2N=C(c3ccc(Cl)cc3)C=CC12 (stereo unspecified) | TGI | > 100 µM
COC(=O)[C@@H]1[C@@H](c2cccc(Cl)c2)[C@H](C(=O)OC)C2(C[C@@]1(C)O)NCCS2 (stereo partly specified) | TGI | > 100 µM
Nc1ncnc2c1nnn2C1C=CC(COS(N)(=O)=O)C1 (stereo unspecified) | TGI | > 100 µM
Cn1cc(C2=C(c3cn(CCCCN)c4ccccc34)C(=O)NC2=O)c2ccccc21 | TGI | > 25 µM
Nc1ccc(C2=NN(c3ccccc3)C(c3ccc(Cl)cc3)C2)cc1 (stereo unspecified) | TGI | 7.9 µM
C=C1C(=O)O[C@H]2[C@H]1CC/C(COC(=O)CSCCSCC(=O)OC/C1=C/CC[C@@]3(C)O[C@H]3[C@H]3OC(=O)C(=C)[C@@H]3CC1)=C\CC[C@@]1(C)O[C@@H]21 | TGI | 3.01 µM
S=C(Nc1ccc(Br)cc1)Nc1ccc(Br)cc1 | TGI | > 100 µM
Cc1ccc(SC(CCC(Sc2ccc(C)cc2)Sc2ccc(C)cc2)Sc2ccc(C)cc2)cc1 | TGI | > 100 µM

Exam item: Please list TGI recorded for the molecule CN(C)CCCOc1ccc(-c2ccc3ncc4c(c3c2)n(C2CCOCC2)c(=O)n4C)cn1
Marked response: 18 µM

----------
System: SK-OV-3 ovarian
Assay: NCI tumour cell line growth inhibition, 48 h
Measured property: TGI

Examples from the recorded data:
Compound | TGI
C[n+]1c(-c2ccc(/C=N/NC(=N)N/N=C/c3ccc(-c4cn5cc(Cl)ccc5[n+]4C)cc3)cc2)cn2cc(Cl)ccc21 | > 100 µM
C=C(COC(C)=O)CC(OC(C)=O)c1ccccc1 (stereo not given) | > 100 µM
CCCCCC(=O)C(C)C1=Nc2nnc(CCCCCCCc3nnc4n3C(=O)C(C(C)C(=O)CCCCC)=N4)n2C1=O (stereo not given) | > 100 µM

Exam item: Please list TGI recorded for the compound CCN(CC)CC1CCCCN1CC(=O)N1c2ccccc2NC(=O)CC1C (stereo not given)
Marked response: > 100 µM

Exam item: Please list TGI recorded for the compound C[C@]12CC[C@H]3[C@@H](CC=C4C[C@@H](N5CCCC5)CC[C@@]43C)[C@@H]1C[C@H](N1CCOCC1)[C@@H]2O
Marked response: > 100 µM
